# Tested on: KRAS PDC multicell spheroid viability;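 further: drug exposure lasted seven days; 100% = DMSO vehicle wells and lower means fewer viable cells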
# measurement.description: Anticancer human tumor 521955-158-R6-J3-PDC patient-derived pancreatic carcinoma cell line growth inhibition [KRAS2]; active means viability on the fitted dose curve at most 10% of control; inactive means the rest
# conditions.used: second compound 3.16 µM; first compound 0.1 µM
Outcomes: 1 (yes) = active, 0 (no) = inactive

{"columns": ["molecule", "label.value"],
 "data": [
  ["CCN1CCN(Cc2ccc(Nc3ncc(F)c(-c4cc(F)c5nc(C)n(C(C)C)c5c4)n3)nc2)CC1 + CC1OCC2(CCN(c3cnc(Sc4ccnc(N)c4Cl)c(N)n3)CC2)C1N", "0 (no)"],
  ["CC1OCC2(CCN(c3cnc(Sc4ccnc(N)c4Cl)c(N)n3)CC2)C1N (stereo not given) + C=CC(=O)N1CCN(c2nc(OCC3CCCN3C)nc3c2CCN(c2cccc4cccc(C)c24)C3)CC1CC#N", "0 (no)"],
  ["CCNC(=O)CC1N=C(c2ccc(Cl)cc2)c2cc(OC)ccc2-n2c(C)nnc21 (stereo not given) + C=CC(=O)N1CCN(c2nc(OCC3CCCN3C)nc3c2CCN(c2cccc4cccc(C)c24)C3)CC1CC#N", "0 (no)"],
  ["CC1(C)CCC(CN2CCN(c3ccc(C(=O)NS(=O)(=O)c4ccc(NCC5CCOCC5)c([N+](=O)[O-])c4)c(Oc4cnc5[nH]ccc5c4)c3)CC2)=C(c2ccc(Cl)cc2)C1 + COc1cc2nc(C)nc(NC(C)c3cc(N)cc(C(F)(F)F)c3)c2cc1OC1CCOC1", "0 (no)"],
  ["CCNC(=O)CC1N=C(c2ccc(Cl)cc2)c2cc(OC)ccc2-n2c(C)nnc21 (stereo not given) + CNCc1ccccc1-c1csc(C(C)Nc2nc(C)nc3cc(OC)c(OC)cc23)c1", "1 (yes)"]
]}
